These entries and their values trace back to patent USRE50528E1.

Item-by-item account of IC50
molecular target: EGFR mutant L858R/T790M (Homo sapiens, UniProt P00533, L858R/T790M); construct: truncated human JAK3, EGFR mutants such as del E746-A750; purchased Carna Biosciences; experiment: Kinase inhibition assay, EGFR L858R/T790M; type: biochemical; settings: read-out: EGFR mutants L858R/T790M;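 further: truncated human enzyme preincubated two hours with compound, then one hour with one millimolar ATP and ULight-PolyGT peptide, Europium-labeled antibody detection, IC50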
Sequence (P00533 669-1210 T790M/L858R limits assumed): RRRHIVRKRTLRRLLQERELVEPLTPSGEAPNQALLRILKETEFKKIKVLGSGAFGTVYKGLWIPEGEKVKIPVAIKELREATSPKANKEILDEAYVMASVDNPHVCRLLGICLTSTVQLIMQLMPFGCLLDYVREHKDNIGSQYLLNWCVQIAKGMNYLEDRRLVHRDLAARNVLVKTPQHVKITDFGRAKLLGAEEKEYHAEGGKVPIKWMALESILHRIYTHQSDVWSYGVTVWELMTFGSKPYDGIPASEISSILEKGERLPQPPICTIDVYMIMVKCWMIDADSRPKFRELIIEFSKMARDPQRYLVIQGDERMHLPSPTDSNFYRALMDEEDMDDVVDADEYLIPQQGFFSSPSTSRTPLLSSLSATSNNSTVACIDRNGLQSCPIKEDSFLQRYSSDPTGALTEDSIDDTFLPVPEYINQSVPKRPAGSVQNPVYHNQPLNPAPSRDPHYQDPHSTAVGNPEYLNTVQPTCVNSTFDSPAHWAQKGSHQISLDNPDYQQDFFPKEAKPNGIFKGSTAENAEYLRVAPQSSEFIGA

compound	measurement.type	endpoint.result
C=CC(=O)Nc1cc(Nc2ncc(C)c(-n3cc(CN4CC(O)C4)c(C)n3)n2)c(OC)cc1N(C)CCN(C)C [Compound 31]	IC50	< 20 nM

// query Output IC50 of C=CC(=O)Nc1cc(Nc2nccc(-n3cc(CN(C)C)c(C(C)(C)C)n3)n2)c(OC)cc1N(CC)CCOC [Compound 126]
// result < 20 nM

// query Output IC50 of C=CC(=O)Nc1cc(Nc2ncc(C)c(-n3cc(CN4CCC4)c(C(C)C)n3)n2)c(OC)cc1N1CCOCC1 [Compound 125]
// result < 20 nM

// query Output IC50 of C=CC(=O)Nc1cc(Nc2nccc(-n3cc(CN4CCC4)c(C)n3)n2)c(OC)cc1C1=CCN(C)CC1 [Compound 59]
// result < 20 nM

// query Output IC50 of Cc1cc(Nc2nccc(-n3cc(CN4CC[C@@H](O)C4)c(C)n3)n2)cc(C)c1OCCN1CCCC1 [Compound 148, reference compound]
// result 201 to 1000 nM

// query Output IC50 of C=CC(=O)Nc1cc(Nc2nccc(-n3cc(CN4CC[C@H](N(C)C)C4)cn3)n2)c(OC)cc1N1CCOCC1 [Compound 35]
// result 201 to 1000 nM
